src = patent US20220064276A1

Hi there, I'd appreciate the recorded kon for every entry that follows.
biological target: T1, human LTBP3-proTGFβ1 complex (human, UniProt Q9NS15 44-1303; P01137 30-390, limits assumed); test: Octet BLI, IgG captured
T1 construct: Exemplary entries; also called Hu LTBP3-proTGFβ1; huLTBP3 proTGFb1
T1 sequence (Q9NS15 44-1303 limits assumed, chain 1 of 2): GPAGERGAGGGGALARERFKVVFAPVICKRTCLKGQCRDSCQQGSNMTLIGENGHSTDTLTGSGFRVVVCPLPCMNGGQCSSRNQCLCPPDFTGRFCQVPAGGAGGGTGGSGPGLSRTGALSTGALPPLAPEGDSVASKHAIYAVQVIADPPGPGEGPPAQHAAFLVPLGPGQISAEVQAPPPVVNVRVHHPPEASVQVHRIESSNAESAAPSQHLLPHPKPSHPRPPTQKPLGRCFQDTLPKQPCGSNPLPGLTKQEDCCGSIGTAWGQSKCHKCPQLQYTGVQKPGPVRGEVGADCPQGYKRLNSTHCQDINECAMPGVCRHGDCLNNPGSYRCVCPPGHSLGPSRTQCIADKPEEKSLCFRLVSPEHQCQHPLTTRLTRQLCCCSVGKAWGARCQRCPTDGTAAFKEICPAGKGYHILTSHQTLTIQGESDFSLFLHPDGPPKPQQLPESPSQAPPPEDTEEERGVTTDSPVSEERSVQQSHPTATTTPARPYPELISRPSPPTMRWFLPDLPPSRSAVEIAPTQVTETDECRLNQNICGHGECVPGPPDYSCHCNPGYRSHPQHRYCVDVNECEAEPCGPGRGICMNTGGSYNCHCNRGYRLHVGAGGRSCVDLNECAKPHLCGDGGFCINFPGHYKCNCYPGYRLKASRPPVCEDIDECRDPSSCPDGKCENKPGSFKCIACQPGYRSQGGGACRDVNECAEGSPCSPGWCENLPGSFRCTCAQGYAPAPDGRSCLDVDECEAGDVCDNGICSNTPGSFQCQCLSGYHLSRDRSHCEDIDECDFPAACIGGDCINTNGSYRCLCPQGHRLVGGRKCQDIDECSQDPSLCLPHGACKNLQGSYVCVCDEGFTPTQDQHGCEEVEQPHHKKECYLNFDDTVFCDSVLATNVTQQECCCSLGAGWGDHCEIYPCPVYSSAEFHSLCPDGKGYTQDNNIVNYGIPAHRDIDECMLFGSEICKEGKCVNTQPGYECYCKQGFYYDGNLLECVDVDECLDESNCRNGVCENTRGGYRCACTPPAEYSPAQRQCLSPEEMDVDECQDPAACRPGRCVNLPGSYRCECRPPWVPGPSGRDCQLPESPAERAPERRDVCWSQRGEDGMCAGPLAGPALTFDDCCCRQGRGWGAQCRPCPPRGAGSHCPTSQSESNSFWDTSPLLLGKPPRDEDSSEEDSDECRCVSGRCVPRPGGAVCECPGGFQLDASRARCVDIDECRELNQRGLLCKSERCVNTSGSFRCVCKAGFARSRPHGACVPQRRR
T1 sequence (P01137 30-390 limits assumed, chain 2 of 2): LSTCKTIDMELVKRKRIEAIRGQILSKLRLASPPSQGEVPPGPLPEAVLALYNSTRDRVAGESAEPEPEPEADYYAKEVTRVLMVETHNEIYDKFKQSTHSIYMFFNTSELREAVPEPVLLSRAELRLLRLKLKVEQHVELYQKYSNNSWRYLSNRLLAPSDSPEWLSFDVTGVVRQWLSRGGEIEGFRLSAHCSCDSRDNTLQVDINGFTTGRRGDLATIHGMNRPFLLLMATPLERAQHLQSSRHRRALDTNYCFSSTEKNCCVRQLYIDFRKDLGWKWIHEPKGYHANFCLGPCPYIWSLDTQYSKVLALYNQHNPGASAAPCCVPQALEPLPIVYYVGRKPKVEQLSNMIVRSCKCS
Hi! Could you send only the number? It should be in M⁻¹ s⁻¹, unit omitted.

Query SR-AB45 (antibody, IgG1, V domains shown, Cycle 3, lineage SR-AB23) VH: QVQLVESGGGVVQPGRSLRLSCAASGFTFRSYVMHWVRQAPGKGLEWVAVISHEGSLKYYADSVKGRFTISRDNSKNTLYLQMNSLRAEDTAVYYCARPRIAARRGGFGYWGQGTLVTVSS VL: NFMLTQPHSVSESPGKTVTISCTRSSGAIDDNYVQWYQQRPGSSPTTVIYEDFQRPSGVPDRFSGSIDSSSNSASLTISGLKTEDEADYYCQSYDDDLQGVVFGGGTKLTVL yields kon of 491000

Query SR-AB42 (antibody, IgG1, V domains shown, Cycle 3, lineage SR-AB23) VH: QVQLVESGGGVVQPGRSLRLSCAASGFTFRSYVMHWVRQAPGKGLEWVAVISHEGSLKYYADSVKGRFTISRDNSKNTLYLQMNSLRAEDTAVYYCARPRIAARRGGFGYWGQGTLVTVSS VL: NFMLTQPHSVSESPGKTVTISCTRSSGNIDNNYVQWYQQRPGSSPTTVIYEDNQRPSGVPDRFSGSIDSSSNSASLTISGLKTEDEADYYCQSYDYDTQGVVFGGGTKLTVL yields kon of 232000

Query SR-AB44 (antibody, IgG1, V domains shown, Cycle 3, lineage SR-AB23) VH: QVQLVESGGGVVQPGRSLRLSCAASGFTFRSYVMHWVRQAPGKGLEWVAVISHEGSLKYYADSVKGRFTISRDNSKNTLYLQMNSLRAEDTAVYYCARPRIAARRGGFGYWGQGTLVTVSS VL: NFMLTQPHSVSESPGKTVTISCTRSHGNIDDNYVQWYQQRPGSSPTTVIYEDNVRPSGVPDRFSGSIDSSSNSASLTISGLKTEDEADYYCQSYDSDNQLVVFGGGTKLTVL yields kon of 410000

Query SR-AB31 (antibody, IgG1, V domains shown, Cycle 3, lineage SR-AB22) VH: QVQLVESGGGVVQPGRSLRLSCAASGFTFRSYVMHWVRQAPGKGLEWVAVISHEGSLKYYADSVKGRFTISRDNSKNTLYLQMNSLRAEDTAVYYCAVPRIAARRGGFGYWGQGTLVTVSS VL: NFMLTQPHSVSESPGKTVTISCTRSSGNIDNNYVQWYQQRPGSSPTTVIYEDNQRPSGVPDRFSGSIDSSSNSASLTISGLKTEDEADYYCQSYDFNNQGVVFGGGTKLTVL yields kon of 308000
